Some compounds, each annotated with its measured pI.
- protocolDescription: pKa, pI and charge distribution of buffers
- measurementSetup: Table 2
- Source text: At the pI, three species coexist. In an electric field these negative species move in the opposite direction of their positive associated counterions. Choice of the dipeptide buffer will be on a case-by-case basis depending on the drug compound and the desired level of pH control and conductivity of the formulation.
Residues, ends and D or L forms follow the SMILES beside them.
Hey, just send me the number, nothing else.

[
  {
    "compound": "N[C@@H](Cc1cnc[nH]1)C(=O)N1CCC[C@H]1C(=O)O",
    "measuredQuantity": "pI",
    "measuredNumber": 6.95
  },
  {
    "compound": "CC[C@H](C)[C@H](N)C(=O)N[C@@H](Cc1cnc[nH]1)C(=O)O [Isoleucine-His] (H-Ile-His-OH)",
    "measuredQuantity": "pI",
    "measuredNumber": 7.44
  },
  {
    "compound": "NCC(=O)N[C@@H](Cc1cnc[nH]1)C(=O)O [Gly-His] (H-Gly-His-OH)",
    "measuredQuantity": "pI",
    "measuredNumber": 7.55
  },
  {
    "compound": "CC(C)[C@H](NC(=O)[C@@H](N)Cc1cnc[nH]1)C(=O)O [His-Val] (H-His-Val-OH)",
    "measuredQuantity": "pI",
    "measuredNumber": 6.95
  },
  {
    "compound": "NCCC[C@H](N)C(=O)N[C@@H](Cc1c[nH]cn1)C(=O)O",
    "measuredQuantity": "pI",
    "measuredNumber": 9.20
  },
  {
    "compound": "CSCC[C@H](N)C(=O)N[C@@H](Cc1cnc[nH]1)C(=O)O [Met-His] (H-Met-His-OH)",
    "measuredQuantity": "pI",
    "measuredNumber": 7.35
  },
  {
    "compound": "N[C@@H](Cc1c[nH]cn1)C(=O)N1CC(O)C[C@H]1C(=O)O (stereo partly drawn) [His-Hydroxyproline]",
    "measuredQuantity": "pI",
    "measuredNumber": 6.95
  },
  {
    "compound": "C[C@@H](O)[C@H](N)C(=O)N[C@@H](Cc1cnc[nH]1)C(=O)O [Thr-His] (H-Thr-His-OH)",
    "measuredQuantity": "pI",
    "measuredNumber": 7.15
  }
]

Query compound follows.
Which value of pI has been reported for N[C@@H](Cc1cnc[nH]1)C(=O)N[C@@H](CCC(=O)O)C(=O)O [His-Glu] (H-His-Glu-OH) in the records? 5.20
